src = ChEMBL document CHEMBL3885861

# Organism: Rattus norvegicus
# assay-details: Open TG-GATES - Regimen: Single
# Assay type: toxicity, organism-based, Sprague-Dawley
# Parameters: regimen Single, gender Male, age 6 weeks
# assay-conditions: in vivo, po, 0 mg/kg, 24 h, tissue Plasma, route gavage, dose level Control
endpoint-name: IP (mg/dL)
Give the number; mg/dL is assumed, so skip it.

// below: answered compounds
O=c1ccc2ccccc2o1 ... 7.9
CCN(CC)C(=S)SSC(=S)N(CC)CC ... 7.8
C=C[C@H]1C[N@@]2CC[C@H]1C[C@@H]2[C@@H](O)c1ccnc2ccc(OC)cc12 ... 7.9

API: the following record is the query input.
Q: Can you look up the measured IP of O=C(O)c1ccccc1Nc1ccccc1 for me?
Ans: 7.8

----------
# Species on record: Rattus norvegicus
# assay-details: Open TG-GATES - Regimen: Daily Repeat
# Type: toxicity, organism-based, Sprague-Dawley
# Set-up: regimen Daily Repeat, gender Male, age 6 weeks
# assay-conditions: in vivo, po, 0 mg/kg, 72 h, tissue Plasma, route gavage, dose level Control, time 3 day
Reported BUN by item:
Give the number; mg/dL is assumed, so skip it.

// below: answered compounds
CCCCC1C(=O)N(c2ccccc2)N(c2ccccc2)C1=O ... 17.4
CC(S)C(=O)NCC(=O)O (centres undefined) ... 17.4

Q: Can you look up the measured BUN of CN(CCOc1ccc(CC2SC(=O)NC2=O)cc1)c1ccccn1.O=C(O)/C=C\C(=O)O (centres undefined) [ROSIGLITAZONE MALEATE] for me?
Ans: 14.8

Q: Can you look up the measured BUN of O=c1ccc2ccccc2o1 for me?
Ans: 15.2

Q: Can you look up the measured BUN of CCO for me?
Ans: 19.6

Q: Can you look up the measured BUN of O=C(O)c1ccccc1Nc1ccccc1 for me?
Ans: 13.2

Q: Can you look up the measured BUN of CCCCNC(=O)NS(=O)(=O)c1ccc(C)cc1 [TOLBUTAMIDE] for me?
Ans: 15

Q: Can you look up the measured BUN of CC(=O)[C@@]1(O)CC[C@H]2[C@@H]3C=C(Cl)C4=CC(=O)CC[C@]4(C)[C@H]3CC[C@@]21C for me?
Ans: 18.8

Q: Can you look up the measured BUN of NS(=O)(=O)c1cc(C(=O)O)c(NCc2ccco2)cc1Cl [FUROSEMIDE] for me?
Ans: 14.4

----------
# Species on record: Rattus norvegicus
# assay-details: Open TG-GATES - Regimen: Single
# Format: toxicity, organism-based, Sprague-Dawley
# Design: regimen Single, gender Male, age 6 weeks
# assay-conditions: in vivo, po, 0 mg/kg, 9 h, tissue Blood, route gavage, dose level Control
Reported Lym by item:

// below: answered compounds
COc1cc2ncnc(Nc3ccc(F)c(Cl)c3)c2cc1OCCCN1CCOCC1 [GEFITINIB] ... 77.6%
Nc1ccc(Cc2ccc(N)cc2)cc1 ... 73.4%

API: the following record is the query input.
Q: Can you look up the measured Lym of O=c1ccc2ccccc2o1 [COUMARIN] for me?
Ans: 79.2%

----------
# Organism: Rattus norvegicus
# assay-details: Open TG-GATES - Regimen: Daily Repeat
# Format: toxicity, organism-based, Sprague-Dawley
# Set-up: regimen Daily Repeat, gender Male, age 6 weeks
# assay-conditions: in vivo, po, 1000 mg/kg, […], tissue Plasma, route gavage, dose level High, time 7 day
Reported K by item:
Give the number; meq/L is assumed, so skip it.

// below: answered compounds
O=C(O)c1ccccc1Nc1ccccc1 ... 4.3
CC(S)C(=O)NCC(=O)O (stereo not drawn) ... 4.6

API: the following record is the query input.
Q: Can you look up the measured K of CC(=O)[C@@]1(O)CC[C@H]2[C@@H]3C=C(Cl)C4=CC(=O)CC[C@]4(C)[C@H]3CC[C@@]21C for me?
Ans: 4.6

----------
# Organism: Rattus norvegicus
# assay-details: Open TG-GATES - Regimen: Single
# Format: toxicity, organism-based, Sprague-Dawley
# Parameters: regimen Single, gender Male, age 6 weeks
# assay-conditions: in vivo, po, 0 mg/kg, 6 h, tissue Plasma, route gavage, dose level Control
endpoint-name: DBIL (mg/dL)
Give the number; mg/dL is assumed, so skip it.

// below: answered compounds
Nc1ccc(Cc2ccc(N)cc2)cc1 ... 0.024
COc1ccc([C@@H]2Sc3ccccc3N(CCN(C)C)C(=O)[C@@H]2OC(C)=O)cc1 ... 0.006

Q: Can you look up the measured DBIL of CCCCNC(=O)NS(=O)(=O)c1ccc(C)cc1 [TOLBUTAMIDE] for me?
Ans: 0.01

----------
# Species: Rattus norvegicus
# assay-details: Open TG-GATES - Regimen: Daily Repeat
# Format: toxicity, organism-based, Sprague-Dawley
# Set-up: regimen Daily Repeat, gender Male, age 6 weeks
# assay-conditions: in vivo, po, 0 mg/kg, 72 h, tissue Blood, route gavage, dose level Control, time 3 day
endpoint-name: Bas

NS(=O)(=O)c1cc(C(=O)O)c(NCc2ccco2)cc1Cl [FUROSEMIDE] ... 0.2%

Q: Can you look up the measured Bas of CC(S)C(=O)NCC(=O)O (stereo not drawn) [TIOPRONIN] for me?
Ans: 0%

Q: Can you look up the measured Bas of CN(C/C=C/C#CC(C)(C)C)Cc1cccc2ccccc12 [TERBINAFINE] for me?
Ans: 0.8%

----------
Reported A/G by item:
# Species on record: Rattus norvegicus
# assay-details: Open TG-GATES - Regimen: Daily Repeat
# Type: toxicity, organism-based, Sprague-Dawley
# Parameters: regimen Daily Repeat, gender Male, age 6 weeks
# assay-conditions: in vivo, po, 0 mg/kg, […], tissue Plasma, route gavage, dose level Control, time 14 day

CC(=O)[C@@]1(O)CC[C@H]2[C@@H]3C=C(Cl)C4=CC(=O)CC[C@]4(C)[C@H]3CC[C@@]21C [CHLORMADINONE] ... 1.1
O=C(O)c1ccccc1Nc1ccccc1 [FENAMIC ACID] ... 0.8

API: the following record is the query input.
Q: Can you look up the measured A/G of CN(CCOc1ccc(CC2SC(=O)NC2=O)cc1)c1ccccn1.O=C(O)/C=C\C(=O)O (stereo not drawn) [ROSIGLITAZONE MALEATE] for me?
Ans: 2.1

----------
# Species on record: Rattus norvegicus
# assay-details: Open TG-GATES - Regimen: Daily Repeat
# Type: toxicity, organism-based, Sprague-Dawley
# Design: regimen Daily Repeat, gender Male, age 6 weeks
# assay-conditions: in vivo, po, 0 mg/kg, […], tissue Blood, route gavage, dose level Control, time 14 day
Reported WBC by item:
Give the number; x10_2/uL is assumed, so skip it.

CCCCNC(=O)NS(=O)(=O)c1ccc(C)cc1 [TOLBUTAMIDE] ... 108
CC(=O)[C@@]1(O)CC[C@H]2[C@@H]3C=C(Cl)C4=CC(=O)CC[C@]4(C)[C@H]3CC[C@@]21C [CHLORMADINONE] ... 126.8
CN(CCOc1ccc(CC2SC(=O)NC2=O)cc1)c1ccccn1.O=C(O)/C=C\C(=O)O (centres undefined) [ROSIGLITAZONE MALEATE] ... 124.2

API: the following record is the query input.
Q: Can you look up the measured WBC of O=c1ccc2ccccc2o1 [COUMARIN] for me?
Ans: 114.9

----------
# Species on record: Rattus norvegicus
# assay-details: Open TG-GATES - Regimen: Single
# Type: toxicity, organism-based, Sprague-Dawley
# Set-up: regimen Single, gender Male, age 6 weeks
# assay-conditions: in vivo, po, 0 mg/kg, 24 h, tissue Plasma, route gavage, dose level Control
endpoint-name: CRE (mg/dL)
Give the number; mg/dL is assumed, so skip it.

Q: Can you look up the measured CRE of C=C[C@H]1C[N@@]2CC[C@H]1C[C@@H]2[C@@H](O)c1ccnc2ccc(OC)cc12 [QUINIDINE] for me?
Ans: 0.1

Q: Can you look up the measured CRE of O=c1ccc2ccccc2o1 [COUMARIN] for me?
Ans: 0.5

Q: Can you look up the measured CRE of NS(=O)(=O)c1cc(C(=O)O)c(NCc2ccco2)cc1Cl [FUROSEMIDE] for me?
Ans: 0.2

----------
# Species: Rattus norvegicus
# assay-details: Open TG-GATES - Regimen: Daily Repeat
# Format: toxicity, organism-based, Sprague-Dawley
# Parameters: regimen Daily Repeat, gender Male, age 6 weeks
# assay-conditions: in vivo, po, 0 mg/kg, […], route gavage, dose level Control, time 14 day
endpoint-name: TERMINAL_BW (g)
Give the number; g is assumed, so skip it.

// below: answered molecules
Nc1ccc(Cc2ccc(N)cc2)cc1 ... 342.6
NS(=O)(=O)c1cc(C(=O)O)c(NCc2ccco2)cc1Cl [FUROSEMIDE] ... 327.8

API: the following record is the query input.
Q: Can you look up the measured TERMINAL_BW of CC(S)C(=O)NCC(=O)O (stereo not drawn) [TIOPRONIN] for me?
Ans: 315.5
